The origin of these recorded values is patent EP4768489A1.

# procedure_summary: Mouse pharmacokinetics
# experimental_parameters: Mouse i.g. (0-48 h), 10 mpk vs i.v. 1 mpk
Task for the reader: assign each of the following compounds its reported F.
Answers are plain numbers, in %.

{"columns": ["compound", "experimental_readout", "val"],
 "data": [
  ["COc1cc(O[C@H]2C(C)(C)[C@H](NC(=O)c3ccc(N4CCC(CN5CCc6ccc7c(C8CCC(=O)NC8=O)noc7c6CC5)CC4)nc3)C2(C)C)ccc1C#N (stereo partly drawn) [Compound 13]", "F", 41.00]
]}

Items follow; give F for each.
1. COc1cc(O[C@H]2C(C)(C)[C@H](NC(=O)c3ccc(N4CCC(CN5Cc6ccc7c(C8CCC(=O)NC8=O)noc7c6C5)CC4)cc3)C2(C)C)ccc1C#N (stereo partly drawn) [Compound 8]
2. COc1cc(O[C@H]2C(C)(C)[C@H](NC(=O)c3cnc(N4CCC(CN5CCc6c(ccc7c(C8CCC(=O)NC8=O)noc67)C5)CC4)nc3)C2(C)C)ccc1C#N (stereo partly drawn) [Compound 4]
3. COc1cc(O[C@H]2C(C)(C)[C@H](NC(=O)c3ccc(N4CCC(CN5CCc6c(ccc7c(C8CCC(=O)NC8=O)noc67)C5)CC4)cc3)C2(C)C)ccc1C#N (stereo partly drawn) [Compound 1]

Response:
[37.00, 55.36, 31.99]

Provide the reported F of each entry below, same order.
1. COc1cc(O[C@H]2C(C)(C)[C@H](NC(=O)c3cnc(N4CCC(CN5CCc6c(ccc7c(C8CCC(=O)NC8=O)noc67)C5)CC4)cn3)C2(C)C)ccc1C#N (stereo partly drawn) [Compound 5]
2. COc1cc(O[C@H]2C(C)(C)[C@H](NC(=O)c3ccc(N4CCC(CN5CCc6ccc7c(C8CCC(=O)NC8=O)noc7c6CC5)CC4)cc3)C2(C)C)ccc1C#N (stereo partly drawn) [Compound 10]

Response:
1: 50.78; 2: 30.00
